Biological target: Glucocorticoid receptor (Homo sapiens) (UniProt P04150)
Sequence (P04150 whole entry, looked up): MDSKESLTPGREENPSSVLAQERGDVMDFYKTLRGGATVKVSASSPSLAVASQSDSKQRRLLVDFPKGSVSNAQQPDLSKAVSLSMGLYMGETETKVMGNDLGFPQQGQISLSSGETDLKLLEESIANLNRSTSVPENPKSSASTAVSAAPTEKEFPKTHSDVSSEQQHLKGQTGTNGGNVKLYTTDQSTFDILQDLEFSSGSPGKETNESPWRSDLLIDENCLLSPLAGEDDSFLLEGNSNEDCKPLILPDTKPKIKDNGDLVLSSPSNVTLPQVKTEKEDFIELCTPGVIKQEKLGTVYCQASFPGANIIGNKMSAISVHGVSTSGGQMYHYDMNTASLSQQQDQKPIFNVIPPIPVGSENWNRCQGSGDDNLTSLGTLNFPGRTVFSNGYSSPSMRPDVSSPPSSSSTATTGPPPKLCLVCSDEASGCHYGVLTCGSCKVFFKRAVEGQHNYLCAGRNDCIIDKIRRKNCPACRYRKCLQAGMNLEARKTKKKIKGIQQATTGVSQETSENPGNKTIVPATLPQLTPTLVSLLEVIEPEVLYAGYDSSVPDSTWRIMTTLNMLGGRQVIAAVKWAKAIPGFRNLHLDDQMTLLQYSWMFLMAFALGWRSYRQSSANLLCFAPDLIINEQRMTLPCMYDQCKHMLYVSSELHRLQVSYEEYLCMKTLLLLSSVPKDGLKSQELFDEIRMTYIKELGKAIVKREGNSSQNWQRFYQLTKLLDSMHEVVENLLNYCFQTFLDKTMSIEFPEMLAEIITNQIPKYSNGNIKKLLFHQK
Experiment: qHTS assay to identify small molecule agonists of the glucocorticoid receptor (GR) signaling pathway (AID 720691); note: % is set by controls: 0 for no effect and ±100 for the full control effect
Conditions: GR-bla HeLa, beta-lactamase reporter ratio, 18 h
Results filed as inconclusive are left out. Activity calls are given as the source filed them. Calls come from the whole dose curve; as a rule, active = well fitted activation curve with a large enough effect in the signal ratio in the repeat runs (not every such curve was filed as active); inconclusive = weak or mixed curves, or effect the other way; inactive = no such curve, though single readings can be large or run the other way; the % refers to the signal ratio.
Tick one outcome: active, inactive

Answered cases to consult:
# Molecule, Class Assignment
measured = [
    ("COc1ccc(C(=O)c2ccc(OC)cc2O)c(O)c1", "inactive"),
    ("NCC(=O)CCC(=O)O", "inactive"),
    ("CCCCCCCC/C=C\\CCCCCCCC(=O)OCC", "inactive"),
    ("C=CC1CC2C=CC1C2 (stereo not drawn)", "inactive"),
    ("C=CC(=O)OCCOCCOC(=O)C=C", "inactive"),
]

Now take the following molecule into account.
INPUT: What call does the record list for C=C1[C@H]2CC[C@@H]3[C@H]2C(C)(C)CCC[C@]13C ?
OUTPUT: inactive

----------
Target: Nuclear receptor subfamily 1 group I member 2 (Homo sapiens) (UniProt O75469)
Sequence (O75469 whole entry, looked up): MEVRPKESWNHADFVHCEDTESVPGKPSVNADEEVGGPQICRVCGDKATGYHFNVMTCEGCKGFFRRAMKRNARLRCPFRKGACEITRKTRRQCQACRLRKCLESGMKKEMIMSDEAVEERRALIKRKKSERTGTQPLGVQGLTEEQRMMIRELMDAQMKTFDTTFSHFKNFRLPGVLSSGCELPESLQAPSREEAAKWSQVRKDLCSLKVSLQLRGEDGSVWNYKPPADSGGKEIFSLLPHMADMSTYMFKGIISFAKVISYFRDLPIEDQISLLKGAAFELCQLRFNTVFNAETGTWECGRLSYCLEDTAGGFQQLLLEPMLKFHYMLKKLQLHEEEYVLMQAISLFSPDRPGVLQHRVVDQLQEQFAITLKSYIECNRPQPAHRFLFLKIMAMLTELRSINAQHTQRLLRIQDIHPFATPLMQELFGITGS
Assay: Human pregnane X receptor (PXR) small molecule agonists, qHTS assay (AID 1346982); note: nearly all actives have a fitted effect of over 35% in size; for activation: % is set by controls: 0 for no effect and ±100 for the full control effect
Settings: PXR-Luc HepG2, CYP3A4 luciferase reporter, 24 h; series mostly up to 92.4 µM
Inconclusive results are not listed. Activity calls are given as the source filed them. Calls come from the whole dose curve; as a rule, active = well fitted activation curve with a large enough effect in the repeat runs; inconclusive = weak or mixed curves; inactive = no such curve, though single readings can be large or run the other way.
Return exactly one item of active, inactive

Solved entries (count: 3):
# Compound, Class Assignment
rows = [
    ("COc1cc(Cl)c(OC)cc1N", "active"),
    ("O=C(Nc1ccccc1)c1ccccc1O", "active"),
    ("CC(C)(COC(=O)c1ccccc1)COC(=O)c1ccccc1", "inactive"),
]

INPUT: I would be grateful if you could indicate the recorded call for O=C1OC(=O)C2C3C=CC(C3)C12 (stereo not given) .
OUTPUT: inactive

INPUT: Query Cc1oc2c(NC(=O)c3c(Cl)cccc3Cl)cccc2c1C(C)(C)O next
OUTPUT: active

INPUT: Now try CCOC(=O)c1cccnc1 .
OUTPUT: inactive

INPUT: Quick one: c1ccc(-c2ccccn2)nc1
OUTPUT: active

INPUT: Item: O=C1OC(CN2CCOCC2)CN1/N=C/c1ccc([N+](=O)[O-])o1 (stereo not given)
OUTPUT: inactive

----------
Experiment: qHTS RealTime-Glo MT Cell Viability Assay in HEK293 cells - 32 hour (AID 1224868); note: nearly all actives have a fitted effect of over 50% in size
Settings: RealTime-Glo luminescence; series mostly up to 76.8 µM
Description: National Center for Advancing Translational Sciences [NCATS] NIH Chemical Genomics Center [NCGC] U.S. Environmental Protection Agency [EPA] National Institutes of Environmental Health Sciences [NIEHS] National Toxicology Program [NTP] U.S. Food and Drug Administration [FDA] Measure of cell viability is critical in the cell-base assay. Analysis of cell viability is necessary for the characterization of cell responses to cytotoxic drugs and environmental stress. […]
Results filed as inconclusive are left out. The source made the active and inactive calls. Calls follow the shape of the dose curve; as a rule, active = well fitted cell-killing curve with a large enough effect in the repeat runs; inconclusive = weak or mixed curves, or effect the other way; inactive = flat fitted curve, though single readings scatter.
The reply should name one outcome from Y = active, N = inactive

# Compound, Class Assignment
data = [
    ("CC(C)CC(=O)C1C(=O)c2ccccc2C1=O", "N"),
    ("Nc1ccc(S(=O)(=O)Nc2ccccc2)cc1", "N"),
    ("COc1cc2c(cc1OC)C(C(C(=O)N(CCc1ccc(OC)c(OC)c1OC)CCc1ccc(OC)c(OC)c1OC)c1ccccc1)=NCC2 (configuration not stated)", "Y"),
    ("O=C(O)C(S)C(S)C(=O)O (configuration not stated)", "N"),
    ("O=P(O)(OCc1ccccc1)OCc1ccccc1", "N"),
    ("Cc1ccc(C(C)OC(=O)C2(C)CCC(C(=O)O)C2(C)C)cc1 (configuration not stated)", "N"),
    ("CC(C)O.CC(C)O.CCOC(=O)/C=C(\\C)O.CCOC(=O)/C=C(\\C)O.[Ti]", "N"),
    ("Nc1ccccc1S(=O)(=O)c1ccccc1", "N"),
]

INPUT: In this assay, the call recorded for CN(C)CCCN1c2ccccc2Sc2ccccc21 was what?
OUTPUT: N

INPUT: # repeat for CCOC(=O)c1cccnc1
OUTPUT: N

INPUT: Also COC(C)(C)CCO , if possible.
OUTPUT: N

INPUT: What about Cc1oc(-c2ccccc2)nc1CCOc1cccc2c1ccn2CCC(=O)O ?
OUTPUT: N

----------
Target: Estrogen receptor beta (Homo sapiens)
Assay: qHTS assay to identify small molecule antagonists of the estrogen receptor beta (ER-beta) signaling pathway (AID 1259378); note: potency is the fitted concentration of half-maximal effect
Details: ER-beta-UAS-bla HEK293T, beta-lactamase FRET ratio, 16 h; series mostly up to 92.4 µM
Inconclusive results are not listed. Activity calls are given as the source filed them. Calls follow the shape of the dose curve; as a rule, active = well fitted inhibition curve with a large enough effect in the signal ratio in the repeat runs (not every such curve was filed as active); inconclusive = weak or mixed curves, or effect the other way; inactive = no such curve, though single readings can be large or run the other way; the % refers to the signal ratio.
Result Type: Potency

Consider the reported Potency for these molecules:
# Molecule, Potency
records = [
    ("O=C1CCCCCCCCCCCC(=O)OCCO1", "inactive"),
    ("CCC(=O)O[C@]1(C(=O)CCl)[C@@H](C)C[C@H]2[C@@H]3CCC4=CC(=O)C=C[C@]4(C)[C@@]3(F)[C@@H](O)C[C@@]21C", "29.8 µM (active)"),
    ("CCCCO", "inactive"),
    ("OCc1cc(C(O)CNCCCCCCOCCCCc2ccccc2)ccc1O (configuration not stated)", "16.8 µM (active)"),
    ("CCCCC", "inactive"),
]

INPUT: If you can, please state the reported Potency value of CC(C)(CO)[N+](=O)[O-] .
OUTPUT: inactive

INPUT: Consider next the molecule Nc1cc(C(=O)O)c(O)c(S(=O)(=O)O)c1 in the same way.
OUTPUT: inactive

----------
Experiment: qHTS assay for identifying genotoxic compounds that show differential cytotoxicity against isogenic chicken DT40 cell lines with known DNA damage response pathways - wild type cell line (AID 743012); note: nearly all actives have a fitted effect of over 60% in size
Conditions: DT40 wild type chicken cells viability, CellTiter-Glo, 40 h; series mostly up to 68.4 µM
Records with an inconclusive call do not appear. Calls of active or inactive are those of the source. Calls come from the whole dose curve; as a rule, active = well fitted cell-killing curve with a large enough effect in the repeat runs; inconclusive = weak or mixed curves, or effect the other way; inactive = no such curve, though single readings can be large or run the other way.
// allowed return values: active, inactive

Here's what some known entries look like.
# Molecule, Class Assignment
data = [
    ("CC1CCC(=O)C1=O (stereo unspecified)", "inactive"),
    ("CCCCc1nc2cccnc2n1Cc1ccc(-c2ccccc2-c2nnn[nH]2)cc1", "inactive"),
    ("CNCCCCOc1ccccc1Cc1ccccc1", "active"),
    ("COc1cc2nc(N(C)CCCNC(=O)C3CCCO3)nc(N)c2cc1OC (stereo unspecified)", "inactive"),
    ("CCCOC(C(=O)OC1CCN(C)CC1)(c1ccccc1)c1ccccc1", "active"),
]

Alright, here's another molecule for you.
INPUT: Given CN1CCC(=C2c3ccccc3Sc3ccccc32)CC1 , state the outcome it received in this test.
OUTPUT: active

----------
Assay: qHTS RealTime-Glo MT Cell Viability Assay in HepG2 cells - 0 hour (AID 1224889); note: nearly all actives have a fitted effect of over 50% in size
Details: RealTime-Glo luminescence; series mostly up to 76.8 µM
Records with an inconclusive call do not appear. Calls of active or inactive are those of the source. Calls come from the whole dose curve; as a rule, active = well fitted cell-killing curve with a large enough effect in the repeat runs; inconclusive = weak or mixed curves, or effect the other way; inactive = flat fitted curve, though single readings scatter.
Your reply should match one of these outcome classes. label 1 = active, label 0 = inactive

# Molecule, Class Assignment
records = [
    ("O=C(NCCO[N+](=O)[O-])c1cccnc1", "label 0"),
    ("CC1=CC[C@H](C(C)C)C=C1", "label 0"),
    ("Cc1ccccc1S(=O)(=O)O", "label 0"),
    ("CC(=O)OC[C@H]1O[C@@H](n2ncc(=O)[nH]c2=O)[C@H](OC(C)=O)[C@@H]1OC(C)=O", "label 0"),
    ("CCOC(=O)C(=O)CCc1ccccc1", "label 0"),
]

INPUT: Test call, this molecule: COc1cc2nc(N3CCN(C(=O)C4COc5ccccc5O4)CC3)nc(N)c2cc1OC (stereo unspecified)
OUTPUT: label 1

----------
Test: A CellTox Green Cytotoxicity Assay to monitor cytotoxicity in HEK293 cells - 32 hour (AID 1224881); note: nearly all actives have a fitted effect of over 40% in size
Conditions: CellTox Green fluorescence; series mostly up to 76.8 µM
Records with an inconclusive call do not appear. The source made the active and inactive calls. Calls come from the whole dose curve; as a rule, active = well fitted activation curve with a large enough effect in the repeat runs; inconclusive = weak or mixed curves; inactive = flat fitted curve, though single readings scatter.
In this exercise, the only acceptable responses are TRUE = active, FALSE = inactive

Example results:
# Compound, Class Assignment
measured = [
    ("COC(=O)C1=C(C)NC(COC(N)=O)=C(C(=O)OC(C)C)C1c1cccc(Cl)c1Cl (configuration not stated)", "FALSE"),
    ("O=C(O)C(S)C(S)C(=O)O (configuration not stated)", "FALSE"),
    ("CC(=O)c1cccc([N+](=O)[O-])c1", "FALSE"),
    ("CCc1cc(C2=C(C(=O)O)N(c3ccccc3C(F)(F)F)S(=O)(=O)c3ccccc32)cc2c1OCO2", "FALSE"),
    ("CCOc1ccc(O)cc1", "FALSE"),
]

INPUT: Record lookup: outcome of this test for C=CC(=O)OCCOCCOCCOCCOC(=O)C=C ?
OUTPUT: TRUE

INPUT: What do you have for Cc1oc(-c2ccccc2)nc1CCOc1cccc2c1ccn2CCC(=O)O ?
OUTPUT: FALSE
